Data origin, for the record: patent US20160207930A1

Below: a set of entries, each annotated with reported Human in vitro Clint.
- experimental-protocol: Hepatic intrinsic clearance following incubation in human liver microsomes
- Assay type: in vitro ADME
- condition-label: 0.5 μM test compound, NADPH, 0-30 min, scaled to g liver

Inquiry: Record request: Human in vitro Clint value, item Cc1cc(F)ccc1[C@H]1[C@@H]2CC(CCO)(CCO)C(=O)N2CCN1C(=O)N(C)[C@H](C)c1cc(C(C)C)cc(C(F)(F)F)c1 [Compound 25]
Reply text: 128 mL/min/g

Inquiry: So what's the measured Human in vitro Clint for this one? CCc1cc([C@@H](C)N(C)C(=O)N2CCN3C(=O)C(CCO)(CCO)CC3C2c2ccc(OC)cc2C)cc(C(F)(F)F)c1 (stereo partly drawn) [Compound 16]
Reply text: >200 mL/min/g

Inquiry: Please look up its Human in vitro Clint: COc1ccccc1[C@H]1[C@@H]2CC(CCO)(CCO)C(=O)N2CCN1C(=O)N(C)[C@H](C)c1cc(C(F)(F)F)cc(C(F)(F)F)c1 [Compound 36]
Reply text: 147 mL/min/g

Inquiry: # query: Human in vitro Clint of entry Cc1nn(C)cc1[C@H]1[C@@H]2CCC(=O)N2CCN1C(=O)N(C)[C@H](C)c1cc(C(F)(F)F)cc(C(F)(F)F)c1 [Compound 64]
Reply text: 67 mL/min/g

Inquiry: Return reported Human in vitro Clint; argument: Cc1cc([C@@H](C)N(C)C(=O)N2CCN3C(=O)CCC3C2c2ccc(C)cc2C)cc(C(F)(F)F)c1 (single isomer, unassigned) [Compound 4]
Reply text: >200 mL/min/g

Inquiry: Give its Human in vitro Clint value. Item: CCc1cc([C@@H](C)N(C)C(=O)N2CCN3C(=O)CC[C@H]3[C@@H]2c2sccc2C)cc(C(F)(F)F)c1 [Compound 51]
Reply text: >200 mL/min/g

Inquiry: Form field: reported Human in vitro Clint of COc1ccc(C2C3CCC(=O)N3CCN2C(=O)N(C)[C@H](C)c2cc(C(F)(F)F)cc(C(F)(F)F)c2)c(C)c1 (single isomer, unassigned) [Compound 19]
Reply text: >200 mL/min/g

Inquiry: State the recorded Human in vitro Clint for this entry: Cc1ccc(C2C3CCC(=O)N3CCN2C(=O)N(C)[C@H](C)c2cc(C(F)(F)F)cc(C(F)(F)F)c2)c(C)c1 (single isomer, unassigned) [Compound 2]
Reply text: >200 mL/min/g

Inquiry: For Cc1cscc1[C@H]1[C@@H]2CCC(=O)N2CCN1C(=O)N(C)[C@H](C)c1cc(C(F)(F)F)cc(C(F)(F)F)c1 [Compound 48] , what is its reported Human in vitro Clint?
Reply text: >200 mL/min/g

Inquiry: Would you mind telling me what Human in vitro Clint value was observed for Cc1cc([C@@H](C)N(C)C(=O)N2CCN3C(=O)CC[C@H]3[C@@H]2c2ccc(F)cc2C)cc(C(F)(F)F)c1 [Compound 21] ?
Reply text: 36 mL/min/g

Inquiry: # get_value(readout='Human in vitro Clint', item= COc1cccc([C@H]2[C@@H]3CCC(=O)N3CCN2C(=O)N(C)[C@H](C)c2cc(C(F)(F)F)cc(C(F)(F)F)c2)c1C [Compound 77] )
Reply text: >200 mL/min/g

Inquiry: Given the entry Cc1ccc(C2C3CC(CCO)(CCO)C(=O)N3CCN2C(=O)N(C)[C@H](C)c2cc(C(F)(F)F)cc(C(F)(F)F)c2)c(C)c1 (single isomer, unassigned) [Compound 7] , report its measured Human in vitro Clint.
Reply text: >200 mL/min/g

====

Reported Human in vitro Clint values for a set of molecules
- experimental-protocol: Hepatic intrinsic clearance following incubation in human liver microsomes
- Format: in vitro ADME
- condition-label: 0.5 μM test compound, NADPH, 0-30 min, scaled to g liver

Sample answers from the record:
molecule="C[C@H](c1cc(C(F)(F)F)cc(C(F)(F)F)c1)N(C)C(=O)N1CCN2C(=O)CC[C@H]2[C@@H]1c1ccccc1CO [Compound 74]" endpoint_value=">200 mL/min/g"
molecule="CCc1cc([C@@H](C)N(C)C(=O)N2CCN3C(=O)C(CCO)(CCO)C[C@H]3[C@@H]2c2ccc(O)cc2C)cc(C(F)(F)F)c1 [Compound 31]" endpoint_value="61 mL/min/g"
molecule="Cc1ccc([C@H]2[C@@H]3CC(CCO)(CCO)C(=O)N3CCN2C(=O)N(C)[C@H](C)c2cc(C(C)C)cc(C(F)(F)F)c2)c(C)c1 [Compound 35]" endpoint_value=">200 mL/min/g"
molecule="CCc1cc([C@@H](C)N(C)C(=O)N2CCN3C(=O)CC[C@H]3[C@@H]2c2ccccc2CC)cc(C(F)(F)F)c1 (single isomer, unassigned) [Compound 71]" endpoint_value=">200 mL/min/g"
molecule="Cc1cc(F)ccc1C1C2CC(CCO)(CCO)C(=O)N2CCN1C(=O)N(C)[C@H](C)c1cc(Cl)cc(C(F)(F)F)c1 (single isomer, unassigned) [Compound 11]" endpoint_value=">200 mL/min/g"

Inquiry: Quick one: Human in vitro Clint of COc1ccc([C@H]2[C@@H]3CC(CCO)(CCO)C(=O)N3CCN2C(=O)N(C)[C@H](C)c2cc(C)cc(C(F)(F)F)c2)c(C)c1 [Compound 17] ?
Reply text: >200 mL/min/g

Inquiry: Can you look up the measured Human in vitro Clint of Cc1cnccc1[C@H]1[C@@H]2CCC(=O)N2CCN1C(=O)N(C)[C@H](C)c1cc(C(F)(F)F)cc(C(F)(F)F)c1 [Compound 46] for me?
Reply text: <10 mL/min/g

====

- assayed-target: NK1 Receptor (Homo sapiens, UniProt P25103)
- Construct: Measurement of NK1 Receptor Mediated Intracellular [Ca^2+]; Mobilization in U251 MG Cells Using FLIPR; endogenous in cells
- Sequence (P25103 whole entry): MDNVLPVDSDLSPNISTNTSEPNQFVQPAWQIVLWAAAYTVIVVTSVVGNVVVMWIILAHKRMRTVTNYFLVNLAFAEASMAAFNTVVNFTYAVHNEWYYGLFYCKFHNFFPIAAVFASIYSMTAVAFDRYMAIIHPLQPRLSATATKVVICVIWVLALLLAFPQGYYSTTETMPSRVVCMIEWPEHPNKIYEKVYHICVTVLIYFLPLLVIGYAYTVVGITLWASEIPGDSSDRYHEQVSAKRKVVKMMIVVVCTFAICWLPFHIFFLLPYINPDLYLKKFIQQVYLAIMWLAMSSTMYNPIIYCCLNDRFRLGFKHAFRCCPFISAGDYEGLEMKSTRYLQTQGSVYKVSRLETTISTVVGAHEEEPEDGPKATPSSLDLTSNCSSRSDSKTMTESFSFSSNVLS
- experimental-protocol: NK1 receptor mediated intracellular [Ca2+] mobilization in U251 MG cells using FLIPR
- condition-label: antagonism of Substance P (EC80), Fluo-4, read-out: NK1R mediated intracellular [Ca^2+] mobilization IC 50
pIC50: −log10 of the molar value.
readout: pIC50

Check out these entries, answers already filled in.
compound=Cc1ccc([C@H]2[C@@H]3CC(CCO)(CCO)C(=O)N3CCN2C(=O)N(C)[C@H](C)c2cc(C(C)C)cc(C(F)(F)F)c2)c(C)c1 endpoint_value=9.85
compound=COc1cccc([C@H]2[C@@H]3CCC(=O)N3CCN2C(=O)N(C)[C@H](C)c2cc(C(C)C)cc(C(F)(F)F)c2)c1C endpoint_value=8.73

I: CCc1cc([C@@H](C)N(C)C(=O)N2CCN3C(=O)CC[C@H]3[C@@H]2c2cccc3c2CCC3)cc(C(F)(F)F)c1
II: Cc1cc(F)ccc1C1C2CC(CCO)(CCO)C(=O)N2CCN1C(=O)N(C)[C@H](C)c1cc(C(F)(F)F)cc(C(F)(F)F)c1 (single isomer, unassigned) [Compound 15]
III: Cc1cc(F)ccc1[C@H]1[C@@H]2CCC(=O)N2CCN1C(=O)N(C)[C@H](C)c1cc(C(F)(F)F)cc(C(F)(F)F)c1
Inquiry: Put the entries in order of pIC50, starting with the largest number. Provide the ranking by listing each label in its place in the requested order.
Reply text: III, I, II
(III: 9.86, I: 9.10, II: 8.60)

====

- experimental-protocol: Hepatic intrinsic clearance following incubation in human liver microsomes
- Format: in vitro ADME
- condition-label: 0.5 μM test compound, NADPH, 0-30 min, scaled to g liver
- Description: Hepatic Extraction Ratio from Hepatic Intrinsic Clearance Following Incubation in Human Liver Microsomes The general procedure consists of an automated incubation system and LC-MS/MS analysis with human liver microsomes. […] The integrated peak areas for test compounds at the selected time points are divided by the respective peak areas of the IS and the percent of parent remaining is calculated by normalizing the peak area ratio of parent to IS at 0 min. […]
readout: Human in vitro Clint

Example molecules with recorded Human in vitro Clint:
molecule="CCc1ccccc1[C@H]1[C@@H]2CCC(=O)N2CCN1C(=O)N(C)[C@H](C)c1cc(C(F)(F)F)cc(C(F)(F)F)c1 (single isomer, unassigned) [Compound 69]" readout="Human in vitro Clint" endpoint_value=">200 mL/min/g"
molecule=C[C@H](c1cc(C(F)(F)F)cc(C(F)(F)F)c1)N(C)C(=O)N1CCN2C(=O)CC[C@H]2[C@@H]1c1cccs1 readout="Human in vitro Clint" endpoint_value=">200 mL/min/g"

// switching to the query molecule
Inquiry: Query: Human in vitro Clint; subject: `Cc1cc([C@@H](C)N(C)C(=O)N2CCN3C(=O)CC[C@H]3[C@@H]2c2ccsc2C)cc(C(F)(F)F)c1`
Reply text: >200 mL/min/g
